Attribution: patent US6974804B2

test-summary: Gelling of water-immiscible cosmetic liquids in 96 well glass micro-titre plate
Format: physicochemical
Design: key: gel; g4: gel after overnight (18 hrs) storage at 4° C.; g22: gel after overnight (18 hrs) storage at 22° C.; sg: soft gel; sg22: soft gel after overnight (18 hrs) storage at 22° C.; solution; *: the test at 4° C. was not carried out
condition-details: 5% cellobiose ester in ISA; 150° C. 2.5 hours, cooled to ambient
readout-type: gelling of ISA

molecule	reported
CCCCCCCCC(=O)OCC1OC(OC2C(COC(=O)CCCCCCCC)OC(OC(C)=O)C(OC(=O)CCCCCCCC)C2OC(=O)CCCCCCCC)C(OC(=O)CCCCCCCC)C(OC(=O)CCCCCCCC)C1OC(=O)CCCCCCCC (mixture of isomers) [Ex 1.6]	sg
CCCCCCCCC(=O)OCC1OC(OC2C(COC(=O)CCCCCCCC)OC(OC(=O)c3ccc4ccccc4c3)C(OC(=O)CCCCCCCC)C2OC(=O)CCCCCCCC)C(OC(=O)CCCCCCCC)C(OC(=O)CCCCCCCC)C1OC(=O)CCCCCCCC (mixture of isomers) [Ex 1.4]	g22

----------
test-summary: Visual assessment score (clarity of gel in 1 cm cuvette)
Format: physicochemical
condition-details: 9% REF2 and 1% of the specified ester in 60:40 hydrogenated polydecene:DC245; scale −12 to 8
Source text: A gel contained within a 1 cm thick cuvette was placed directly on to a sheet of white paper on which 21 sets of figures where printed in black. The size and thickness of the figures varied systematically and were numbered from −12 (the largest, thickest set) through 0 to 8 (the smallest thinnest set) The score given to each gel was the highest numbered set which could be read clearly through the gel, the higher the number, the higher the clarity.
readout-type: Clarity Visual (assessment score)

compound	Clarity Visual (assessment score)
CCCCCCCCC(=O)OCC1OC(OC2C(COC(=O)CCCCCCCC)OC(OC(C)=O)C(OC(=O)CCCCCCCC)C2OC(=O)CCCCCCCC)C(OC(=O)CCCCCCCC)C(OC(=O)CCCCCCCC)C1OC(=O)CCCCCCCC (mixture of isomers) [Ex 1.7]	> 8
CCCCCCCCCCCCCCCC(=O)OC1OC(COC(=O)CCCCCCCC)C(OC2OC(COC(=O)CCCCCCCC)C(OC(=O)CCCCCCCC)C(OC(=O)CCCCCCCC)C2OC(=O)CCCCCCCC)C(OC(=O)CCCCCCCC)C1OC(=O)CCCCCCCC (mixture of isomers)	> 8
CCCCCCCCC(=O)OCC1OC(OC2C(COC(=O)CCCCCCCC)OC(OC(C)=O)C(OC(=O)CCCCCCCC)C2OC(=O)CCCCCCCC)C(OC(=O)CCCCCCCC)C(OC(=O)CCCCCCCC)C1OC(=O)CCCCCCCC (mixture of isomers) [Ex 1.5]	> 8
CCCCCCCCC(=O)OCC1OC(OC2C(COC(=O)CCCCCCCC)OC(OC(=O)c3ccc4ccccc4c3)C(OC(=O)CCCCCCCC)C2OC(=O)CCCCCCCC)C(OC(=O)CCCCCCCC)C(OC(=O)CCCCCCCC)C1OC(=O)CCCCCCCC (mixture of isomers) [Ex 1.3]	4

// next item, Clarity Visual (assessment score) requested
Let me know recorded Clarity Visual (assessment score) for CCCCCCCCC(=O)OCC1OC(OC2C(COC(=O)CCCCCCCC)OC(OC(C)=O)C(OC(=O)CCCCCCCC)C2OC(=O)CCCCCCCC)C(OC(=O)CCCCCCCC)C(OC(=O)CCCCCCCC)C1OC(=O)CCCCCCCC (mixture of isomers) [Ex 1.6] , thanks.
> 8

----------
test-summary: Gelling of water-immiscible cosmetic liquids in 96 well glass micro-titre plate
Type: physicochemical
Design: key: gel; g4: gel after overnight (18 hrs) storage at 4° C.; g22: gel after overnight (18 hrs) storage at 22° C.; sg: soft gel; sg22: soft gel after overnight (18 hrs) storage at 22° C.; solution; *: the test at 4° C. was not carried out
condition-details: 5% cellobiose ester in DC556

molecule	gelling of DC556
CCCCCCCCCC(=O)OCC1OC(OC2C(COC(=O)CCCCCCCCC)OC(OC(C)=O)C(OC(=O)CCCCCCCCC)C2OC(=O)CCCCCCCCC)C(OC(=O)CCCCCCCCC)C(OC(=O)CCCCCCCCC)C1OC(=O)CCCCCCCCC (mixture of isomers) [Ex 2.3]	gel
CCCCCCCCC(=O)OCC1OC(OC2C(COC(=O)CCCCCCCC)OC(OC(=O)CCCC)C(OC(=O)CCCCCCCC)C2OC(=O)CCCCCCCC)C(OC(=O)CCCCCCCC)C(OC(=O)CCCCCCCC)C1OC(=O)CCCCCCCC (mixture of isomers)	g22

----------
test-summary: Gelling of water-immiscible cosmetic liquids in 96 well glass micro-titre plate
Assay type: physicochemical
Parameters: key: gel; g4: gel after overnight (18 hrs) storage at 4° C.; g22: gel after overnight (18 hrs) storage at 22° C.; sg: soft gel; sg22: soft gel after overnight (18 hrs) storage at 22° C.; solution; *: the test at 4° C. was not carried out
condition-details: 5% cellobiose ester in Fluid AP
readout-type: gelling of Fluid AP

compound	reported
CCCCCCCCC(=O)OCC1OC(OC2C(COC(=O)CCCCCCCC)OC(OC(=O)c3ccc4ccccc4c3)C(OC(=O)CCCCCCCC)C2OC(=O)CCCCCCCC)C(OC(=O)CCCCCCCC)C(OC(=O)CCCCCCCC)C1OC(=O)CCCCCCCC (mixture of isomers) [Ex 1.3]	gel
CCCCCCCCCC(=O)OCC1OC(OC2C(COC(=O)CCCCCCCCC)OC(OC(C)=O)C(OC(=O)CCCCCCCCC)C2OC(=O)CCCCCCCCC)C(OC(=O)CCCCCCCCC)C(OC(=O)CCCCCCCCC)C1OC(=O)CCCCCCCCC (mixture of isomers) [Ex 2.3]	gel

----------
test-summary: Gelling of water-immiscible cosmetic liquids in 96 well glass micro-titre plate
Format: physicochemical
Set-up: key: gel; g4: gel after overnight (18 hrs) storage at 4° C.; g22: gel after overnight (18 hrs) storage at 22° C.; sg: soft gel; sg22: soft gel after overnight (18 hrs) storage at 22° C.; solution; *: the test at 4° C. was not carried out
condition-details: 5% cellobiose ester in Mineral oil
readout-type: gelling of Mineral oil

compound	gelling of Mineral oil
CCCCCCCCC(=O)OCC1OC(OC2C(COC(=O)CCCCCCCC)OC(OC(C)=O)C(OC(=O)CCCCCCCC)C2OC(=O)CCCCCCCC)C(OC(=O)CCCCCCCC)C(OC(=O)CCCCCCCC)C1OC(=O)CCCCCCCC (mixture of isomers) [Ex 1.7]	sg
CCCCCCCCCC(=O)OCC1OC(OC2C(COC(=O)CCCCCCCCC)OC(OC(=O)c3ccccc3)C(OC(=O)CCCCCCCCC)C2OC(=O)CCCCCCCCC)C(OC(=O)CCCCCCCCC)C(OC(=O)CCCCCCCCC)C1OC(=O)CCCCCCCCC (mixture of isomers) [Ex 2.1]	gel
CCCCCCCCCCCCCC(=O)OC1OC(COC(=O)CCCCCCCC)C(OC2OC(COC(=O)CCCCCCCC)C(OC(=O)CCCCCCCC)C(OC(=O)CCCCCCCC)C2OC(=O)CCCCCCCC)C(OC(=O)CCCCCCCC)C1OC(=O)CCCCCCCC (mixture of isomers) [Ex 1.24]	g22
CCCCCCCCCC(=O)OCC1OC(OC2C(COC(=O)CCCCCCCCC)OC(OC(C)=O)C(OC(=O)CCCCCCCCC)C2OC(=O)CCCCCCCCC)C(OC(=O)CCCCCCCCC)C(OC(=O)CCCCCCCCC)C1OC(=O)CCCCCCCCC (mixture of isomers) [Ex 2.3]	gel
CCCCCCCCC(=O)OCC1OC(OC2C(COC(=O)CCCCCCCC)OC(OC(=O)CCC)C(OC(=O)CCCCCCCC)C2OC(=O)CCCCCCCC)C(OC(=O)CCCCCCCC)C(OC(=O)CCCCCCCC)C1OC(=O)CCCCCCCC (mixture of isomers) [Ex 1.18]	g22
CCCCCCCCC(=O)OCC1OC(OC2C(COC(=O)CCCCCCCC)OC(OC(=O)c3ccc(-c4ccccc4)cc3)C(OC(=O)CCCCCCCC)C2OC(=O)CCCCCCCC)C(OC(=O)CCCCCCCC)C(OC(=O)CCCCCCCC)C1OC(=O)CCCCCCCC (mixture of isomers) [Ex 1.15]	gel

Let me know recorded gelling of Mineral oil for CCCCCCCCC(=O)OCC1OC(OC2C(COC(=O)CCCCCCCC)OC(OC(C)=O)C(OC(=O)CCCCCCCC)C2OC(=O)CCCCCCCC)C(OC(=O)CCCCCCCC)C(OC(=O)CCCCCCCC)C1OC(=O)CCCCCCCC (mixture of isomers) [Ex 1.5] , thanks.
g22

Let me know recorded gelling of Mineral oil for CCCCCCCCC(=O)OCC1OC(OC2C(COC(=O)CCCCCCCC)OC(OC(=O)c3ccc4ccccc4c3)C(OC(=O)CCCCCCCC)C2OC(=O)CCCCCCCC)C(OC(=O)CCCCCCCC)C(OC(=O)CCCCCCCC)C1OC(=O)CCCCCCCC (mixture of isomers) [Ex 1.4] , thanks.
g22

Let me know recorded gelling of Mineral oil for CCCCCCCCC(=O)OCC1OC(OC2C(COC(=O)CCCCCCCC)OC(OC(=O)CCCC)C(OC(=O)CCCCCCCC)C2OC(=O)CCCCCCCC)C(OC(=O)CCCCCCCC)C(OC(=O)CCCCCCCC)C1OC(=O)CCCCCCCC (mixture of isomers) [Ex 1.20] , thanks.
g22

Let me know recorded gelling of Mineral oil for CCCCCCCCC(=O)OCC1OC(OC2C(COC(=O)CCCCCCCC)OC(OC(=O)C3CCCCC3)C(OC(=O)CCCCCCCC)C2OC(=O)CCCCCCCC)C(OC(=O)CCCCCCCC)C(OC(=O)CCCCCCCC)C1OC(=O)CCCCCCCC (mixture of isomers) [Ex 1.11] , thanks.
g22

Let me know recorded gelling of Mineral oil for CCCCCCCCCCCCCCCC(=O)OC1OC(COC(=O)CCCCCCCC)C(OC2OC(COC(=O)CCCCCCCC)C(OC(=O)CCCCCCCC)C(OC(=O)CCCCCCCC)C2OC(=O)CCCCCCCC)C(OC(=O)CCCCCCCC)C1OC(=O)CCCCCCCC (mixture of isomers) [Ex 1.8] , thanks.
g22

Let me know recorded gelling of Mineral oil for CCCCCCCCCC(=O)OCC1OC(OC2C(COC(=O)CCCCCCCCC)OC(OC(=O)CCCCC)C(OC(=O)CCCCCCCCC)C2OC(=O)CCCCCCCCC)C(OC(=O)CCCCCCCCC)C(OC(=O)CCCCCCCCC)C1OC(=O)CCCCCCCCC (mixture of isomers) [Ex 2.11] , thanks.
gel

Let me know recorded gelling of Mineral oil for CCCCCCCCCC(=O)OCC1OC(OC2C(COC(=O)CCCCCCCCC)OC(OC(=O)c3ccccc3)C(OC(=O)CCCCCCCCC)C2OC(=O)CCCCCCCCC)C(OC(=O)CCCCCCCCC)C(OC(=O)CCCCCCCCC)C1OC(=O)CCCCCCCCC (mixture of isomers) [Ex 2.2] , thanks.
gel

Let me know recorded gelling of Mineral oil for CCCCCCCCC(=O)OCC1OC(OC2C(COC(=O)CCCCCCCC)OC(OC(=O)c3ccc4ccccc4c3)C(OC(=O)CCCCCCCC)C2OC(=O)CCCCCCCC)C(OC(=O)CCCCCCCC)C(OC(=O)CCCCCCCC)C1OC(=O)CCCCCCCC (mixture of isomers) [Ex 1.3] , thanks.
g22

Let me know recorded gelling of Mineral oil for CCCCCCCCC(=O)OCC1OC(OC2C(COC(=O)CCCCCCCC)OC(OC(=O)c3ccccc3)C(OC(=O)CCCCCCCC)C2OC(=O)CCCCCCCC)C(OC(=O)CCCCCCCC)C(OC(=O)CCCCCCCC)C1OC(=O)CCCCCCCC (mixture of isomers) [Ex 1.1] , thanks.
gel
